Parameter IC50, tested on human factor XIa (Homo sapiens, UniProt P03951), listed per item.
Sequence (P03951 388-625 limits assumed): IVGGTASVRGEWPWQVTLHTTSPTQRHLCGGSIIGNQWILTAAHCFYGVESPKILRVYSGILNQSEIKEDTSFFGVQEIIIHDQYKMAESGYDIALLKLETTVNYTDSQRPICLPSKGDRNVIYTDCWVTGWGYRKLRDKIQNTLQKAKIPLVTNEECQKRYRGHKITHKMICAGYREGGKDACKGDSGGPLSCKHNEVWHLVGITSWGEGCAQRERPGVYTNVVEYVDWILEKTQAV
Sequence (P03951 19-387 partner limits assumed): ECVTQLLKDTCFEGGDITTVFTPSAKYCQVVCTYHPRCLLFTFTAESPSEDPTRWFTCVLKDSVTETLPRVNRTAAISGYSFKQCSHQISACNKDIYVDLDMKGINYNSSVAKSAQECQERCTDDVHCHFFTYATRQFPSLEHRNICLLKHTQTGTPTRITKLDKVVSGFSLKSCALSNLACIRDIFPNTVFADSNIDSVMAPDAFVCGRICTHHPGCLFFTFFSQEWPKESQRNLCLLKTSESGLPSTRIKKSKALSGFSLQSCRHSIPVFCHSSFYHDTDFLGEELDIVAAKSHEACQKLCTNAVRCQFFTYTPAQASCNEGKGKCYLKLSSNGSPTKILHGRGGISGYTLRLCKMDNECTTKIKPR
Reported Endpoint: IC50 (µM)

{"Compound": "CC1(C)CN(C(=O)c2nnc(Cc3ccccc3)[nH]2)C[C@]2(C1)OC(=O)Nc1ccc(Cl)c(F)c12", "Result Number": 7.2}
{"Compound": "O=C1Nc2ccc(Cl)c(F)c2[C@@]2(CCCN(C(=O)c3nnc(Cc4ccccc4)[nH]3)C2)O1", "Result Number": 6.89}
{"Compound": "CCC(c1ccnc(C(F)(F)F)c1)c1c[nH]c(C(=O)N2CCC[C@@]3(C2)OC(=O)Nc2ccc(Cl)c(F)c23)n1 (single isomer, unassigned)", "Result Number": 2.05}
{"Compound": "O=C1Nc2ccc(Cl)c(F)c2[C@@]2(CCCN(C(=O)c3nnc(C(Cc4ccccc4)c4ccccc4)[nH]3)C2)O1 (single isomer, unassigned)", "Result Number": 3.6}
{"Compound": "CCC(c1ccnc(C(F)(F)F)c1)n1cc(C(=O)N2CCC[C@@]3(C2)OC(=O)Nc2ccc(Cl)c(F)c23)cn1 (single isomer, unassigned)", "Result Number": 2.06}
{"Compound": "CC1(C)CN(C(=O)c2nnc(C(C)(C)c3ccccc3)[nH]2)C[C@]2(C1)OC(=O)Nc1ccc(Cl)c(F)c12", "Result Number": 3.01}

* * *

- System: Human plasma kallikrein (Homo sapiens)
- Construct: yields a heavy chain (371 amino acids) and a light chain (248 amino acids)
- Experimental Details: Plasma Kallikrein Assay
- Setup Conditions: purified Human plasma kallikrein 0.5 nM, substrate Acetyl-K-P-R-AFC; read-out: PKal IC50
pIC50: −log10 of the molar value.
Reported Endpoint: pIC50

{"Compound": "O=C1Nc2ccc(Cl)c(F)c2[C@@]2(CCCN(C(=O)c3cnn([C@@H](CC4CC4)c4ccccc4)c3)C2)O1 (single isomer, unassigned)", "Result Number": 8.16}
{"Compound": "O=C1Nc2ccc(Cl)c(F)c2[C@]2(CCN(C(=O)c3cnn(Cc4ccc(Cn5ccccc5=O)cc4)c3)C2)O1", "Result Number": 8.21}
{"Compound": "CC[C@H](c1cc(C)c2nc[nH]c2c1)c1n[nH]c(C(=O)N2CCC[C@@]3(C2)OC(=O)Nc2ccc(Cl)c(F)c23)n1", "Result Number": 9.00}
{"Compound": "CCC(c1ccc(F)cc1)c1nnc(C(=O)N2CC(C)(C)C[C@@]3(C2)OC(=O)Nc2ccc(Cl)c(F)c23)[nH]1 (single isomer, unassigned) [Example 103]", "Result Number": 8.15}
{"Compound": "O=C1Nc2ccc(Cl)c(F)c2[C@@]2(CCCN(C(=O)c3nnc(C(c4ccccc4)C4CC4)[nH]3)C2)O1 (single isomer, unassigned) [Example 107]", "Result Number": 7.95}
{"Compound": "O=C1Nc2ccc(Cl)c(F)c2[C@@]2(CCCN(C(=O)c3cnn(Cc4ccc5c(c4)COCC5)c3)C2)O1", "Result Number": 7.96}

* * *

- System: Human plasma kallikrein (Homo sapiens)
- Construct: yields a heavy chain (371 amino acids) and a light chain (248 amino acids)
- Experimental Details: Plasma Kallikrein Assay
- Setup Conditions: purified Human plasma kallikrein 0.5 nM, substrate Acetyl-K-P-R-AFC; read-out: PKal IC50
Entries and their measured IC50 follow.
Reported Endpoint: IC50 (nM)

{"Compound": "O=C1Nc2ccc(Cl)c(F)c2[C@@]2(CCCN(C(=O)c3nnc(Cc4cccc(C(F)(F)F)c4)[nH]3)C2)O1", "System": "Human plasma kallikrein (Homo sapiens)", "Result Number": 23.9}
{"Compound": "CCC(c1ccc(F)cc1)c1c[nH]c(C(=O)N2CCC[C@@]3(C2)OC(=O)Nc2ccc(Cl)c(F)c23)n1 (single isomer, unassigned) [Example 72]", "System": "Human plasma kallikrein (Homo sapiens)", "Result Number": 9.3}
{"Compound": "COc1ccc(Cl)cc1Cn1cc(C(=O)N2CCC[C@@]3(C2)OC(=O)Nc2ccc(Cl)c(F)c23)cn1", "System": "Human plasma kallikrein (Homo sapiens)", "Result Number": 37.6}
{"Compound": "COCC(c1ccccc1)n1cc(C(=O)N2CCC[C@@]3(C2)OC(=O)Nc2ccc(Cl)c(F)c23)cn1 (stereo partly drawn)", "System": "Human plasma kallikrein (Homo sapiens)", "Result Number": 16.2}
{"Compound": "O=C1Nc2ccc(Cl)c(F)c2[C@@]2(CCCN(C(=O)c3nnc(Cc4cc(F)cc(Cl)c4)[nH]3)C2)O1", "System": "Human plasma kallikrein (Homo sapiens)", "Result Number": 35.4}
{"Compound": "CC[C@H](c1ccc(F)cc1)c1nnc(C(=O)N2CCC[C@@]3(C2)OC(=O)Nc2ccc(Cl)c(F)c23)[nH]1 (single isomer, unassigned)", "System": "Human plasma kallikrein (Homo sapiens)", "Result Number": 16.7}

* * *

pIC50: −log10 of the molar value.
Parameter pIC50, tested on human factor XIa (Homo sapiens, UniProt P03951), listed per item.

{"Compound": "CCC(c1c(C)noc1C)n1cc(C(=O)N2CCC[C@@]3(C2)OC(=O)Nc2ccc(Cl)c(F)c23)cn1 (single isomer, unassigned)", "System": "human factor XIa (Homo sapiens, UniProt P03951)", "pIC50": 5.62}
{"Compound": "CCC(c1ccc2c(c1)OCO2)n1cc(C(=O)N2CCC[C@@]3(C2)OC(=O)Nc2ccc(Cl)c(F)c23)cn1 (single isomer, unassigned)", "System": "human factor XIa (Homo sapiens, UniProt P03951)", "pIC50": 5.32}
{"Compound": "CCCCC(O)(c1ccc(F)cc1)c1ncc(C(=O)N2CCC[C@@]3(C2)OC(=O)Nc2ccc(Cl)c(F)c23)[nH]1 (stereo partly shown)", "System": "human factor XIa (Homo sapiens, UniProt P03951)", "pIC50": 5.64}
{"Compound": "CCC(c1cccc(S(C)(=O)=O)c1)n1cc(C(=O)N2CCC[C@@]3(C2)OC(=O)Nc2ccc(Cl)c(F)c23)cn1 (single isomer, unassigned)", "System": "human factor XIa (Homo sapiens, UniProt P03951)", "pIC50": 5.61}
{"Compound": "CCC(c1cc(C)c2nc[nH]c2c1)n1cc(C(=O)N2CCC[C@@]3(C2)OC(=O)Nc2ccc(Cl)c(F)c23)cn1 (single isomer, unassigned)", "System": "human factor XIa (Homo sapiens, UniProt P03951)", "pIC50": 5.85}
{"Compound": "CCC(c1ccc(F)c(Cl)c1)c1nnc(C(=O)N2CCC[C@@]3(C2)OC(=O)Nc2ccc(Cl)c(F)c23)[nH]1 (single isomer, unassigned)", "System": "human factor XIa (Homo sapiens, UniProt P03951)", "pIC50": 5.06}
{"Compound": "CC[C@H](c1ccc(F)cc1)c1nnc(C(=O)N2CCC[C@@]3(C2)OC(=O)Nc2ccc(Cl)c(F)c23)[nH]1 (single isomer, unassigned)", "System": "human factor XIa (Homo sapiens, UniProt P03951)", "pIC50": 5.51}

* * *

Entries and their measured IC50 follow.
- System: Human plasma kallikrein (Homo sapiens, UniProt P03952)
- Construct: yields a heavy chain (371 amino acids) and a light chain (248 amino acids)
- Sequence (P03952 391-638 limits assumed): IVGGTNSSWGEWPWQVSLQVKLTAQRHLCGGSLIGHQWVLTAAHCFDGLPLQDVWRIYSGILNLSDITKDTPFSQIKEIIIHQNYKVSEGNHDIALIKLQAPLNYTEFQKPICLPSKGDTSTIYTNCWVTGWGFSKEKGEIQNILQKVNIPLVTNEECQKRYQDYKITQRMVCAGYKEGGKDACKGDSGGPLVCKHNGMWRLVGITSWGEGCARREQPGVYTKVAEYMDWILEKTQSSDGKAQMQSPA
- Sequence (P03952 20-390 partner limits assumed): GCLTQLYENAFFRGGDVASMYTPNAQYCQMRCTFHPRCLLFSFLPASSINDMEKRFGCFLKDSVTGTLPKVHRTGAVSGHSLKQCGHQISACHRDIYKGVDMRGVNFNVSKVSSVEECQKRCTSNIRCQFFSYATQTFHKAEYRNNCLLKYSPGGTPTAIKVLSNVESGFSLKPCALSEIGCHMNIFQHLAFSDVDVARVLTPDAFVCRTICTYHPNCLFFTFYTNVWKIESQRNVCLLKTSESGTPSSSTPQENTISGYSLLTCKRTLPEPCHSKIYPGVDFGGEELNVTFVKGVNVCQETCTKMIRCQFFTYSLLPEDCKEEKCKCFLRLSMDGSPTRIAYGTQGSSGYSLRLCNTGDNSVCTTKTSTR
- Experimental Details: Plasma Kallikrein Assay
- Setup Conditions: purified Human plasma kallikrein 0.5 nM, substrate Acetyl-K-P-R-AFC; read-out: PKal IC50

{"Compound": "CCC(c1ccc2[nH]ncc2c1)n1cc(C(=O)N2CCC[C@@]3(C2)OC(=O)Nc2ccc(Cl)c(F)c23)cn1 (single isomer, unassigned) [Example 40]", "IC50 [nM]": 7.1}
{"Compound": "CCC(c1ccnc(C(F)(F)F)c1)c1c[nH]c(C(=O)N2CCC[C@@]3(C2)OC(=O)Nc2ccc(Cl)c(F)c23)n1 (single isomer, unassigned) [Example 74]", "IC50 [nM]": 10.8}
{"Compound": "O=C1Nc2ccc(Cl)c(F)c2[C@@]2(CCCN(C(=O)c3cnn(Cc4cccc(C5CC5)c4)c3)C2)O1 [Example 48]", "IC50 [nM]": 32.6}
{"Compound": "O=C1Nc2ccc(Cl)c(F)c2[C@@]2(CCCN(C(=O)c3nnc(Cc4ccccc4)[nH]3)C2)O1 [Example 86]", "IC50 [nM]": 24.8}
{"Compound": "CCC(O)(c1ccc(F)cc1)c1n[nH]c(C(=O)N2CCC[C@@]3(C2)OC(=O)Nc2ccc(Cl)c(F)c23)n1 (single isomer, unassigned) [Example 128]", "IC50 [nM]": 4}
{"Compound": "O=C1Nc2ccc(Cl)c(F)c2[C@@]2(CCCN(C(=O)c3nnc(Cc4cccc(Cl)c4)[nH]3)C2)O1 [Example 118]", "IC50 [nM]": 29.2}

* * *

- System: Human plasma kallikrein (Homo sapiens, UniProt P03952)
- Construct: yields a heavy chain (371 amino acids) and a light chain (248 amino acids)
- Experimental Details: Plasma Kallikrein Assay
- Setup Conditions: purified Human plasma kallikrein 0.5 nM, substrate Acetyl-K-P-R-AFC; read-out: PKal IC50
Entries and their measured IC50 follow.
Reported Endpoint: IC50 (nM)

{"Molecule": "O=C1Nc2ccc(Cl)c(F)c2[C@@]2(CCCN(C(=O)c3cnn(Cc4ccc(F)c(N5CCC5)c4)c3)C2)O1", "Result Number": 34.1}
{"Molecule": "O=C1Nc2ccc(Cl)c(F)c2[C@@]2(CCCN(C(=O)c3nnc(Cc4ccc(CO)c(Cl)c4)[nH]3)C2)O1", "Result Number": 20.3}
{"Molecule": "O=C1Nc2ccc(Cl)c(F)c2[C@@]2(CCCN(C(=O)c3cnn(Cc4ccc(-n5cc[nH]c5=O)cc4)c3)C2)O1", "Result Number": 13.7}
{"Molecule": "O=C1Nc2ccc(Cl)c(F)c2[C@@]2(CCCN(C(=O)c3cnn(Cc4ccc5c(c4)CNS5(=O)=O)c3)C2)O1", "Result Number": 24.2}
{"Molecule": "O=C1Nc2ccc(Cl)c(F)c2[C@@]2(CCCN(C(=O)c3nnc([C@](O)(c4ccccc4)C(F)(F)F)[nH]3)C2)O1", "Result Number": 20.1}
{"Molecule": "O=C1Nc2ccc(Cl)c(F)c2[C@@]2(CCCN(C(=O)c3nnc(Cc4ccc(F)c(Cl)c4)[nH]3)C2)O1", "Result Number": 49.7}
{"Molecule": "O=C1Nc2ccc(Cl)c(F)c2[C@@]2(CCCN(C(=O)c3cnn(Cc4ccc5ccsc5c4)c3)C2)O1", "Result Number": 17.1}
{"Molecule": "CCC(c1ccc(F)c(Cl)c1)c1nnc(C(=O)N2CCC[C@@]3(C2)OC(=O)Nc2ccc(Cl)c(F)c23)[nH]1 (single isomer, unassigned) [Example 97]", "Result Number": 13.8}
{"Molecule": "Nc1noc2ccc(Cn3cc(C(=O)N4CCC[C@@]5(C4)OC(=O)Nc4ccc(Cl)c(F)c45)cn3)cc12", "Result Number": 29.7}
{"Molecule": "Cc1cnn(Cc2ccc(Cn3cc(C(=O)N4CC[C@]5(C4)OC(=O)Nc4ccc(Cl)c(F)c45)cn3)cc2)c1", "Result Number": 20.8}
